# key: entry, value: % Blockade
Target: T1, recombinant hCTLA-4-mFc (human CTLA-4 extracellular domain with a C-terminal Fc portion of mouse IgG2a) (human)
T1 construct: also called dimeric CTLA-4 protein
T1 sequence (chain, as listed by the source limits assumed): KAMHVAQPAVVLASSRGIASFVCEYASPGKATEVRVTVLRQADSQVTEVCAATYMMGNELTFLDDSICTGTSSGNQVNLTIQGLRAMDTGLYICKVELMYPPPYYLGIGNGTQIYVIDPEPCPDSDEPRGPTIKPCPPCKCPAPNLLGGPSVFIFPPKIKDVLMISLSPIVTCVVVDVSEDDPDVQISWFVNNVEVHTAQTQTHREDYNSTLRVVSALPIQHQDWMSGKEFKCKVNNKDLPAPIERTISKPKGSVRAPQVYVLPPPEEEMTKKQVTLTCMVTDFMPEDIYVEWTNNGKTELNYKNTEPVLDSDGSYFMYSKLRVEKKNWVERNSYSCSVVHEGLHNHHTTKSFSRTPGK
Assay: competition ELISA, 200 pM hCTLA-4-mFc on plate-coated hB7-1-hIgG1-6His
Report the value in % with no unit label.

As a guide, the following entries are already answered.
>  <BINDER>
H1H20386N (antibody, human IgG1, V domains shown, here with human IgG1 Fc (H1H)) VH: QVQLVESGGGVVQPGRSLRLSCAASGFTVNRYGIHWVRQAPGKGLEWVAVTWYDGRNKYFADSVKGRFSFSRDSSTNTLYLQMNSLRAEDTAVYYCARGGLFGYFDYWGQGTLVTVSS VL: EIVLTQSPDTLSLSPGERATLSCRASQSVAGSYLAWYQQKPGQAPRLLIYGASSRATGIPDRFSGSGSGTDFTLTISRLEPEDFAVYYCQQYGTSPWTFGQGTKVEIT

>  <MEASUREMENT UNIT>
%

>  <OBSERVED VALUE>
94

$$$$
>  <BINDER>
H1H19291P (antibody, human IgG1, V domains shown) VH: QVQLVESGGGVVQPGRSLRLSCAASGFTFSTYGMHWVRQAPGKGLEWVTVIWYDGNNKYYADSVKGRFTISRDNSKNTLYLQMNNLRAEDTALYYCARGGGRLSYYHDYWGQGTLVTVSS VL: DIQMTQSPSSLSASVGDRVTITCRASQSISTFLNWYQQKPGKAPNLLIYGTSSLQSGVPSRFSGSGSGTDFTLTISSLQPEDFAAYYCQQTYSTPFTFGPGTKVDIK

>  <MEASUREMENT UNIT>
%

>  <OBSERVED VALUE>
98

$$$$
>  <BINDER>
H1H19305P (antibody, human IgG1, V domains shown) VH: QVQLQESGPGLVKPSQTLSLTCTVSGGSITSGGYYWSWIRQHPGKGLEWIGYIFYSGITNYNPSLKSRVTISVDTSKNQFSLKLTSVTAADTAVYYCATYNSLRLYYGMDVWGQGTTVTVSS VL: DVVMTQSPLSLPVILGQPASISCRSSQSLVYGDGNTYLNWFQQRPGQSPRRLIYKVSNRDSGVPDRFSGSGSGTDFTLKISRVEAEDVGVYYCMQSTHWPLTFGGGTKVEIK

>  <MEASUREMENT UNIT>
%

>  <OBSERVED VALUE>
98

$$$$

Prompt line: Endpoint output: % Blockade of H1H19269P (antibody, human IgG1, V domains shown) VH: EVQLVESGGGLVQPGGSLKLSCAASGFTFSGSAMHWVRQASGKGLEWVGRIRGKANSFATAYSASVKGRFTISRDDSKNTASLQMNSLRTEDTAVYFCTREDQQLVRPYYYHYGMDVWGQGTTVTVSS VL: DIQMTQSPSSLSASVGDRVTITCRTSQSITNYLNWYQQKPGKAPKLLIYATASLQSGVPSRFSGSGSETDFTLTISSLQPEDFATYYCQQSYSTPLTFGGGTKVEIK . Value?
Response line: 98

Prompt line: Endpoint output: % Blockade of H1H20370N (antibody, human IgG1, V domains shown, here with human IgG1 Fc (H1H)) VH: QVQLHESGPGLVKPSQTLSLTCSVSGGSISNGGYYWSWIRQHPGQGLEWIGYIYYIGNTYYNPSLESRVTMSIDTSKNQFSLKLSSVTAADTAIYYCARQEFVPGAEYFLHWGQGILVTVSS VL: DIRMTQSPSSLSASVGDRVTITCRASQTVNTFLNWYQQKPGKAPKLLIFGASSLQSGVPSRFSGSGSGTDFTLTISGLQPEDFAIYYCQQSYSVPPITFGQGTRLEIE . Value?
Response line: 95

Prompt line: Endpoint output: % Blockade of H1H20373N (antibody, human IgG1, V domains shown, here with human IgG1 Fc (H1H)) VH: EVQLLESGGGLVQPGGSLRLSCAASGFTFSSYAMSWVRQAPGKGLEWVSDISGSGLSTYYADSVKGRFAISRDNSKNMLYLQMNRLRAEDTAVYYCAKEPSHWNGEAFDIWGQGTMVTVSS VL: DIQMTQSPSSVSASVGDRVTITCRASQDISSWLAWYQQKPGKAPKLLIYTTANLQSGVPSRFSGSGSGTDFTLTISSLQSEDFATYYCQQANSFPFTFGSGTKVDIK . Value?
Response line: 22
